Origin of the recorded values: patent US9890153B2

For each record, write down the corresponding pIC50.
- Tgt: SIK2 (QIK) (SEQ ID NO: 11) (Homo sapiens)
- Sequence (Q9H0K1 whole entry): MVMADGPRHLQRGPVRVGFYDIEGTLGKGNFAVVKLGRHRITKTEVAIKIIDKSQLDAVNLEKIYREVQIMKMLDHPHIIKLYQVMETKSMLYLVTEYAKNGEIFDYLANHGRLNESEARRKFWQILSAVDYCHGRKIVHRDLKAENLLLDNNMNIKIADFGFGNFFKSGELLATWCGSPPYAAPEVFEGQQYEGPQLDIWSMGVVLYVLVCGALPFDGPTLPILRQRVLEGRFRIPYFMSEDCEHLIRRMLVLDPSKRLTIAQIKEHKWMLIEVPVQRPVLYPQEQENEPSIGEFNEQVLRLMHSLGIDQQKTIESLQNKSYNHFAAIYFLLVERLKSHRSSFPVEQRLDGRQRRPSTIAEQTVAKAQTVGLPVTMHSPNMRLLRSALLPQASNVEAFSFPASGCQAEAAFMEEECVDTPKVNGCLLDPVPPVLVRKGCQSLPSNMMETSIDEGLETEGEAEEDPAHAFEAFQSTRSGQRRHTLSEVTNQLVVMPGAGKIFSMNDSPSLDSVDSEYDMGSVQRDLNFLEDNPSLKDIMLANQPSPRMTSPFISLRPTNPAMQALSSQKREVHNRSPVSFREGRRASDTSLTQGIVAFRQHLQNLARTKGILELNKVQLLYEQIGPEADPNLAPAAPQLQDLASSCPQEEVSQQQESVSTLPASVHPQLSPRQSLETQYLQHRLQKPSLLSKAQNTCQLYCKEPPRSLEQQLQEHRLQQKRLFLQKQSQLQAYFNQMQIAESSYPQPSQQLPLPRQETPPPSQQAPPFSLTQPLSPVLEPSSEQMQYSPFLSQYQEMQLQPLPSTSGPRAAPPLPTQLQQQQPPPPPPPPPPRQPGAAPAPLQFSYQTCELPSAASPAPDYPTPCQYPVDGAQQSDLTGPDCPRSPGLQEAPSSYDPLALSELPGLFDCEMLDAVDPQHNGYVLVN
- Assay comment: SIK2 kinase assay (radiometric, 10 μM ATP)
- Assay type: biochemical
- Recorded conditions: read-out: SIK2 (QIK) (SEQ ID NO: 11) kinase inhibition result
pIC50: −log10 of the molar value.

Take a look at these entries with their results.
COc1c(F)cccc1-c1c[nH]c2ncc(-c3ccc(CN4CCCCC4)s3)cc12 : > 7.00
COc1ccc(-c2c[nH]c3nccc(-c4ccsc4)c23)cc1 : < 6.00
CN(C(C)(C)C)S(=O)(=O)c1cccc(-c2cnc3[nH]cc(-c4cccc5c4OC(F)(F)O5)c3c2)c1 : > 7.00

Attention now turns to another entry.
Ask | Query (compound): COc1c(F)cccc1-c1c[nH]c2ncc(-c3ccsc3)cc12 ; field requested: pIC50
Reply | > 7.00
